# assayed-target: TNNI3K (Homo sapiens)
# Sequence (Q59H18 1-835): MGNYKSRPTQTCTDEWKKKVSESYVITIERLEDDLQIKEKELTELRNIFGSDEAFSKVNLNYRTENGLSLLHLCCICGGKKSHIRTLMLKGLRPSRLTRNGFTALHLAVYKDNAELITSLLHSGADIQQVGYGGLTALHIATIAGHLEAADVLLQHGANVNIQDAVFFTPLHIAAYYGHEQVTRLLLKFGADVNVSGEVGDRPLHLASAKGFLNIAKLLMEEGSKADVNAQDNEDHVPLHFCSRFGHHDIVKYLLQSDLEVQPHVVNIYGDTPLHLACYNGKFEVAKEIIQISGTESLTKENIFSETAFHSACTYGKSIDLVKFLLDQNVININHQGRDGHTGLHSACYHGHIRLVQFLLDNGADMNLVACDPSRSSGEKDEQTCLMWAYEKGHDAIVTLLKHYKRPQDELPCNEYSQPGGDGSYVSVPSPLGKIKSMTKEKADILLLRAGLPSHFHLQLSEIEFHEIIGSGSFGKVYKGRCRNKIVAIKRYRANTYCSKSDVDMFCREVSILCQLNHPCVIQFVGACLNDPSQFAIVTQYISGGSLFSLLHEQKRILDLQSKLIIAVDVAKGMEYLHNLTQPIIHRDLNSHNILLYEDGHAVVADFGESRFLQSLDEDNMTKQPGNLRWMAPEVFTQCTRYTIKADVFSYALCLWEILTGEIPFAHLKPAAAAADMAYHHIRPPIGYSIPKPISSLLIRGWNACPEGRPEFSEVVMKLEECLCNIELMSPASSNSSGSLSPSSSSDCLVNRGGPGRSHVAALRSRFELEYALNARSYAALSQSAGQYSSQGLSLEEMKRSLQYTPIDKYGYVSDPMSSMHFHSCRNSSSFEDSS
# protocol-details: KINOMEscan active-site competitive binding assay
# reported-conditions: slash = two separate measurements
Give measured Kd for each item. Keep answers brief.
Your answer is read as nM, so omit the unit and give the number.

Fill in the blank: the reported Kd of `NC(=O)c1cc(Oc2ccc(NC(=O)Nc3ccc(Cl)c(C(F)(F)F)c3)c(F)c2)cc[n+]1[O-]` is ____.
77

Try this compound too: `CNC(=O)c1cc(Oc2ccc(NC(=O)Nc3ccc(Cl)c(C(F)(F)F)c3)c(F)c2)cc[n+]1[O-]`
160
